Molecular target: JAK1 (Homo sapiens)
Construct: JAK1 (aa 850-1154) and TYK2 (aa 871-1187) are expressed with an N-terminally fused GST-tag; GST (N)
Sequence (P23458 850-1154): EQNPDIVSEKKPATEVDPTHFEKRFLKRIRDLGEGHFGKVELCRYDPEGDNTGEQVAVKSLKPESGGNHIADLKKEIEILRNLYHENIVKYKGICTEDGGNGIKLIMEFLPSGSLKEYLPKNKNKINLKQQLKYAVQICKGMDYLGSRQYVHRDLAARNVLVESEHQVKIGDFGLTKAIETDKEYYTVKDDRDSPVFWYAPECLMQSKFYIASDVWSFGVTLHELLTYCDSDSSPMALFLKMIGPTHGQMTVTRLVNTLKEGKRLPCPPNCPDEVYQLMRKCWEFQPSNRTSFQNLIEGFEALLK
Test: JAK kinase assay (HTRF, phosphorylation of synthetic peptide), JAK1
Settings: catalytic domain, ATP at Km (7 μM); read-out: JAK1 kinase inhibitory activity (EC50)
recorded metric: EC50

Below are worked cases with known answers.
CC(=O)N(CC1CCS(=O)(=O)C1)S(=O)(=O)N1CCN(c2ncnc3[nH]ccc23)CC12CC2 (centres unmarked): < 100 nM
CN(C1CNC1)S(=O)(=O)N1CCN(c2ncnc3[nH]ccc23)CC12CC2: < 100 nM

Consider CN(Cc1cccc(C#N)c1)S(=O)(=O)N1CCN(c2ncnc3[nH]ccc23)CC12CC2 . Its measured EC50 is < 100 nM

Consider CN(CCOc1ccc(C#N)cc1)S(=O)(=O)N1CCN(c2ncnc3[nH]ccc23)CC12CC2 . Its measured EC50 is < 100 nM

Consider CN(CC1CCN(C=O)C1)S(=O)(=O)N1CCN(c2ncnc3[nH]ccc23)CC12CC2 (centres unmarked) . Its measured EC50 is < 100 nM

Consider CN(C[C@H]1CCC(=O)N1)S(=O)(=O)N1CCN(c2ncnc3[nH]ccc23)CC12CC2 . Its measured EC50 is < 100 nM

Consider N#CCN(C1COC1)S(=O)(=O)N1CCN(c2ncnc3[nH]ccc23)CC12CC2 . Its measured EC50 is < 100 nM

Consider CCN(C1CCC1)S(=O)(=O)N1CCN(c2ncnc3[nH]ccc23)CC12CC2 . Its measured EC50 is < 100 nM

====

Biological target: TYK2 (Homo sapiens)
Construct: JAK1 (aa 850-1154) and TYK2 (aa 871-1187) are expressed with an N-terminally fused GST-tag; GST (N)
Sequence (P29597 871-1187): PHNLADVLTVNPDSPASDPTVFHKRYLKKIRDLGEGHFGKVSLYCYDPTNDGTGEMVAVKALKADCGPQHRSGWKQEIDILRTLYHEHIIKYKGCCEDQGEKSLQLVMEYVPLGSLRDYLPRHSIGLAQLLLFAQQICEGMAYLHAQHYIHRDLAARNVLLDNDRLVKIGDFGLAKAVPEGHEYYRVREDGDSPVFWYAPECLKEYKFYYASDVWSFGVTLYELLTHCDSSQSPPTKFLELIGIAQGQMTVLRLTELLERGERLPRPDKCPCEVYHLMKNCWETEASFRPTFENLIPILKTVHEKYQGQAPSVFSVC
Assay: JAK kinase assay (HTRF, phosphorylation of synthetic peptide), TYK2
Details: catalytic domain, ATP at Km (13 μM); read-out: TYK2 kinase inhibitory activity (EC50)
pEC50: −log10 of the molar value.
Here, each record is paired with measured pEC50 data.

Below are worked cases with known answers.
CN(CC(=O)c1ccccc1)S(=O)(=O)N1CCN(c2ncnc3[nH]ccc23)CC12CC2 [Example 12]: < 6.30
CN(C(=O)CC1CCS(=O)(=O)CC1)S(=O)(=O)N1CCN(c2ncnc3[nH]ccc23)CC12CC2 [Example 136]: < 6.30
O=S(=O)(N(CCOc1ccccc1)C1COC1)N1CCN(c2ncnc3[nH]ccc23)CC12CC2 [Example 115]: 6.30 to 7.00

Proceeding to the next compound to report its pEC50.
Here N#CC1CCN(S(=O)(=O)N2CCN(c3ncnc4[nH]ccc34)CC23CC3)CC1 [Example 39] was tested on TYK2 (Homo sapiens), and its pEC50 came to < 6.30

====

Here, each record is paired with measured pEC50 data.
Molecular target: TYK2 (Homo sapiens)
Construct: JAK1 (aa 850-1154) and TYK2 (aa 871-1187) are expressed with an N-terminally fused GST-tag; GST (N)
Test: JAK kinase assay (HTRF, phosphorylation of synthetic peptide), TYK2
Details: catalytic domain, ATP at Km (13 μM); read-out: TYK2 kinase inhibitory activity (EC50)
pEC50: −log10 of the molar value.

Below are worked cases with known answers.
O=S(=O)(N(CCc1ccccc1)CCc1ccccc1)N1CCN(c2ncnc3[nH]ccc23)CC12CC2: < 6.30
CCOC(=O)CN(CCc1ccccc1)S(=O)(=O)N1CCN(c2ncnc3[nH]ccc23)CC12CC2: < 6.30
O=S(=O)(N(CCc1ccccc1)CC1CC1)N1CCN(c2ncnc3[nH]ccc23)CC12CC2: < 6.30
CN(C(=O)CCC1CCS(=O)(=O)C1)S(=O)(=O)N1CCN(c2ncnc3[nH]ccc23)CC12CC2 (stereo not shown): < 6.30
CN(CC1CCCN(S(=O)(=O)CCCC#N)C1)S(=O)(=O)N1CCN(c2ncnc3[nH]ccc23)CC12CC2 (stereo not shown): < 6.30
CN(C(=O)C1CCS(=O)(=O)CC1)S(=O)(=O)N1CCN(c2ncnc3[nH]ccc23)CC12CC2: > 7.00
CN(C1COC1)S(=O)(=O)N1CCN(c2ncnc3[nH]ccc23)CC12CC2: 6.30 to 7.00
CN(CC1CC(F)(F)C1)S(=O)(=O)N1CCN(c2ncnc3[nH]ccc23)CC12CC2: > 7.00

Consider CN(CC1CCN(S(C)(=O)=O)C1)S(=O)(=O)N1CCN(c2ncnc3[nH]ccc23)CC12CC2 (stereo not shown) . Its measured pEC50 is 6.30 to 7.00

Consider CN(Cc1ccccn1)S(=O)(=O)N1CCN(c2ncnc3[nH]ccc23)CC12CC2 . Its measured pEC50 is 6.30 to 7.00

====

Here, each record is paired with measured EC50 data.
Target: TYK2 (Homo sapiens, UniProt P29597)
Construct: JAK1 (aa 850-1154) and TYK2 (aa 871-1187) are expressed with an N-terminally fused GST-tag; GST (N)
Assay: JAK kinase assay (HTRF, phosphorylation of synthetic peptide), TYK2
Settings: catalytic domain, ATP at Km (13 μM); read-out: TYK2 kinase inhibitory activity (EC50)

O=S(=O)(N(CC1CCC(F)(F)CC1)CC1CCC(F)(F)CC1)N1CCN(c2ncnc3[nH]ccc23)CC12CC2: > 500 nM
CN(CCCc1ccccc1)S(=O)(=O)N1CCN(c2ncnc3[nH]ccc23)CC12CC2: > 500 nM
CC(C#N)N(C1COC1)S(=O)(=O)N1CCN(c2ncnc3[nH]ccc23)CC12CC2 (stereo not shown): 100 to 500 nM

Consider N#CCCN(CC#N)S(=O)(=O)N1CCN(c2ncnc3[nH]ccc23)CC12CC2 . Its measured EC50 is < 100 nM

Consider O=S1(=O)CCC(CNS(=O)(=O)N2CCN(c3ncnc4[nH]ccc34)CC23CC3)C1 (stereo not shown) . Its measured EC50 is > 500 nM

Consider CN(C[C@H]1CCCN1S(C)(=O)=O)S(=O)(=O)N1CCN(c2ncnc3[nH]ccc23)CC12CC2 . Its measured EC50 is < 100 nM

====

Biological target: JAK3 (Homo sapiens)
Construct: All four purified enzymes contain only the catalytic domain; His (N)
Sequence (P52333 822-1111 limits assumed): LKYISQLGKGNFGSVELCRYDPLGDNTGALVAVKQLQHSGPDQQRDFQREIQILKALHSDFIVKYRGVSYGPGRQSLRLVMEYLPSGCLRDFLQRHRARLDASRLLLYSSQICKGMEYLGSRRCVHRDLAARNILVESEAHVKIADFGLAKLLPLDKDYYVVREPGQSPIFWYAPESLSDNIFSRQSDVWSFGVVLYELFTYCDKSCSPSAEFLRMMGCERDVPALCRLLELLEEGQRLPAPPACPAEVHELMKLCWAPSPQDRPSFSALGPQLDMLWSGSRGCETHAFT
Assay: JAK kinase assay (HTRF, phosphorylation of synthetic peptide), JAK3
Conditions: catalytic domain, ATP at Km (2 μM); read-out: JAK3 kinase inhibitory activity (EC50)
recorded metric: EC50

CN(C[C@@H]1CC(F)(F)CN1C(=O)CCO)S(=O)(=O)N1CCN(c2ncnc3[nH]ccc23)CC12CC2: < 0.1 µM
CN(c1ccccc1)S(=O)(=O)N1CCN(c2ncnc3[nH]ccc23)CC12CC2: 0.1 to 0.5 µM
CCN(C1CCC1)S(=O)(=O)N1CCN(c2ncnc3[nH]ccc23)CC12CC2: 0.1 to 0.5 µM
CCN(C(C)C)S(=O)(=O)N1CCN(c2ncnc3[nH]ccc23)CC12CC2: 0.1 to 0.5 µM

Consider O=S(=O)(NC[C@@H]1CCCN1Cc1ccccc1)N1CCN(c2ncnc3[nH]ccc23)CC12CC2 . Its measured EC50 is 0.1 to 0.5 µM

Consider O=S(=O)(N(CCCc1ccccc1)CCc1ccccc1)N1CCN(c2ncnc3[nH]ccc23)CC12CC2 . Its measured EC50 is > 0.5 µM

Consider O=S(=O)(N(CC1CCC(F)(F)CC1)CC1CCC(F)(F)CC1)N1CCN(c2ncnc3[nH]ccc23)CC12CC2 . Its measured EC50 is 0.1 to 0.5 µM

Consider CN(CCc1ccc(F)cc1)S(=O)(=O)N1CCN(c2ncnc3[nH]ccc23)CC12CC2 . Its measured EC50 is < 0.1 µM

Consider CN(C[C@@H]1CC(F)(F)CN1S(=O)(=O)CCCC#N)S(=O)(=O)N1CCN(c2ncnc3[nH]ccc23)CC12CC2 . Its measured EC50 is < 0.1 µM

Consider CN(C(=O)C1CCC(F)(F)CC1)S(=O)(=O)N1CCN(c2ncnc3[nH]ccc23)CC12CC2 . Its measured EC50 is < 0.1 µM

====

Target: TYK2 (Homo sapiens, UniProt P29597)
Construct: JAK1 (aa 850-1154) and TYK2 (aa 871-1187) are expressed with an N-terminally fused GST-tag; GST (N)
Test: JAK kinase assay (HTRF, phosphorylation of synthetic peptide), TYK2
Settings: catalytic domain, ATP at Km (13 μM); read-out: TYK2 kinase inhibitory activity (EC50)
pEC50: −log10 of the molar value.
Here, each record is paired with measured pEC50 data.

CN(C[C@H]1CCCN1C(=O)CO)S(=O)(=O)N1CCN(c2ncnc3[nH]ccc23)CC12CC2: > 7.00

Consider O=S(=O)(NCC1CCC(F)(F)CC1)N1CCN(c2ncnc3[nH]ccc23)CC12CC2 . Its measured pEC50 is 6.30 to 7.00

Consider CN(C[C@@H]1CCCN1S(C)(=O)=O)S(=O)(=O)N1CCN(c2ncnc3[nH]ccc23)CC12CC2 . Its measured pEC50 is 6.30 to 7.00

Consider CN(C1CN(S(C)(=O)=O)C1)S(=O)(=O)N1CCN(c2ncnc3[nH]ccc23)CC12CC2 . Its measured pEC50 is > 7.00

Consider N#CCCCN(CCO)S(=O)(=O)N1CCN(c2ncnc3[nH]ccc23)CC12CC2 . Its measured pEC50 is 6.30 to 7.00

Consider CC(=O)N(CC1CCS(=O)(=O)CC1)S(=O)(=O)N1CCN(c2ncnc3[nH]ccc23)CC12CC2 . Its measured pEC50 is 6.30 to 7.00
